B1: CCDC6 (parent)
chain: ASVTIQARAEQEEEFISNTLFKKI

- Variants of: B1
- assay_comment: protein stability index of a GFP-peptide fusion (GPS, HEK-293T) (PSI 1-6); higher = more stable;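 note: lentivirally expressed fusions sorted by FACS into six bins by GFP to DsRed ratio, PSI derived from sequencing read proportions per bin multiplied by bin number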
- applied_conditions: c terminus: a fixed tail appended
recorded_metric: protein stability index
// no unit, no text: just the number

F15S; 4.03
I16R; 3.92
T4N; 3.98
A7S; 3.9
Q11D; 3.99

Suppose we examine the variant R8S ; what protein stability index value has been reported?
4.05

# query: protein stability index of entry I16T
3.95

Request the reported protein stability index associated with S17K
4.03

Using the record for F15R , report its protein stability index.
4.09

Record request: protein stability index value, item L20I
3.89
